Taken from the NTF2 design screens of Basanta et al. (2020).

Could you please report measured protease stability score for the items listed next?
# Assay Text: protease stability score; higher = more stable; yeast display proteolysis, trypsin and chymotrypsin;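 note: relative to predicted unfolded state with 0 unfolded-like and 1 meaning tenfold more protease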
Just the number, please, no unit after it.

protease stability score reported for this sequence `DEDEKDAERAVKHWIKLMHTGDEELLIRLFDPHTRVEIDGVEFHGREKVTELFREFTKRVKNVRIILRRYRIVGEWIEVDTEVRVGDKSSEVHLVILKVDGKWIMHVEHYK` : 1.85

protease stability score reported for this sequence `DEDEEDARRFLEILQHHMRTGDWDSLYRLLDPHVRLHIGDKHHHGREEIRKHLHHLRFKELENRHITVYDGRMHVHGRIQGKFDGRDDKYESEIVVLKVDGQWLIEEIHVK` : 2.06

protease stability score reported for this sequence `DEEHHDLQEFFERLKRHWETGDWKEITKNFDPNVKERYGDFEVHGREEAIRKAKEMRYNDMDIRHRRVIDGRAYLHTEMDGNFDGRERRFEVEMIITKIDGVWRIKHVTFK` : 1.06

protease stability score reported for this sequence `DEDTEKVERIAKEVINLHETGDWENWSKQADPHTRVELNVDGQHFEYIGREKFREALEWLGIKHSHFHHIEIIGDKLHVDGYSFFNGRRTRVELRFVIVNGRIKHQIIIIK` : 0.848

protease stability score reported for this sequence `DEDKDLMHEVTRLLHRNLNTGDEHSLERLFDPHYRYHQGEFHSVGREEWYEWLRRYGVDHVHVNLTESISVGDKMKLEGKLELRYDGRRFEHDLHLIALKIDGRWIFTSSHVR` : 0.221

protease stability score reported for this sequence `SEEEKRWEDWARLMLNWLRTGDEEKISNLMDPNAKSETLIDGRRVEYHGREEVSRFLFELFEEFGIDHLHVRHYDVFDGVFHAHFRVHVGEKERELEVEFHVVDGRITVDTVKFH` : 1.5

* * *

Could you please report measured protease stability score for the items listed next?
# Assay Text: protease stability score; higher = more stable; yeast display proteolysis, trypsin and chymotrypsin;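 note: relative to predicted unfolded state with 0 unfolded-like and 1 meaning tenfold more protease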
Just the number, please, no unit after it.

protease stability score reported for this sequence `DEDKELAIRMIRLLMHALHTGDEDLLDELLDPNTKVDVDGQDLVGREQFLRDLRHIRIEIKDSHIHDVRVQGDKVRSHSYINGRREYDGVRLETEFRVLFIIRKVNGKWIFKSIHSL` : 1.3

protease stability score reported for this sequence `DEREEEARKWIELFLRHLLTGDEDSLQELADPHTRNIVGDKDLIGWRFMIKYVRDVRERFDHIEFHITRMEVQGDKVRVDVRIINIVGDKHFEIESHIVTEKINGKWRLKSMELR` : 1.51

protease stability score reported for this sequence `DETTEIQEKLAKELMRLLLTGNEEEIMKNADPDVREHVLVDGKHINNIGREEVHRVRRELLEKVKNLRIRINRVEIQGEKVRMETTLHIDGQDIHVIYIFIIINGRIKEVHIEIR` : 0.708

protease stability score reported for this sequence `DDEKRFTHEAIKTSEEVMKTGDERLMRELMDPNVRSEIDGRDVHGMDIITEWLSHIRIEDIKLRRITVIDGVITIRGEVYFEQGDKIVTFDVTIIYEKIDGRWLLRSLHVK` : 1.53

protease stability score reported for this sequence `SEEDELYRHIAEHLLHLLHTGNEEILDHLLDPHVKLEINIGDKRDEFIGRHSLREWLSRFKNVKLHVHDDKVINGVNHVDGTLDINGRRTHIEIHLHVYNGKVRRLQFNIH` : 1.62

protease stability score reported for this sequence `EEEEEFLRIMIELFLRTVKTGDEDAFNKLADPNVKSNINGVTLHGMERHHEWLRIELEKAGVERVDTRLDDKNIIDGRVIVHGTMFYNGRTITVHNIWHKINGRWVLETIEIR` : 1.6

* * *

Could you please report measured protease stability score for the items listed next?
# Assay Text: protease stability score; higher = more stable; yeast display proteolysis, trypsin and chymotrypsin;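 note: relative to predicted unfolded state with 0 unfolded-like and 1 meaning tenfold more protease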
Just the number, please, no unit after it.

protease stability score reported for this sequence `DELEELIRKLAELFFEILRTGDEDKLRKLLDPHAKFTFIINGVIIDSIGRDFILKLHEDLWRRIKNVRMEYERVEVQGDKAYFRTRMNFNGKETETNLHLIIVDGKLKQESWEIE` : 0.738

protease stability score reported for this sequence `DHLEEDSERAKELFIKVFKTGDEHIIKEMIDPHARLDWNGQEFHGREEVTRVMHELLEEYGIKHLHVRRFKVVNGRVEIDTELRQGDYRDESIIIILKVNGKWLIHSIEFK` : 2.12

protease stability score reported for this sequence `DQEHRDLHKLAHLILEYLVTGDFEMFEHLADPNVKVNINGKEMHGMERMREHLELIWKELRIHHLHITEVTIQGNKVEIDGRWDGKVNGQHRIEERHFYLVTVNGRIRHISEEIV` : 1.37

protease stability score reported for this sequence `SEHEEDLERFAREWIHIFKTGDFKMFNKLADPNVRVHINGKDNHGMEQWKHLKDRHEKELGVDRVDIHVDDVRFIGDKIEMDVTVRQGEFSTRWHVELIVVDGRLKHVSFHVR` : 1.16

protease stability score reported for this sequence `DEDRERSKKEFDTLVKSELTGDEDSYRRMADPDTRLVVGDKEYHGRSAMRYFLRQVDHMEHVIIRRVEYQGDYAHFDITVHGDINGRRDTVHFHLVMYKIDGRWVVHELIIK` : 1.32

protease stability score reported for this sequence `NEVDEWVEEAVHLLEEILETGDFRELSNYFDPRVRIDINGRDYHGRELALEQLLRWIEDLGVKHFDHYEIHDREIQGEKVNLNIEITLTFDGRRHTIHHNFHMEKVNGKWVIESIHIR` : 1.19

protease stability score reported for this sequence `DEHRESLETALEIEIETMLTGDEDSFKRLADPHYRLDVNGVKYHGREAVRVYLEQFDYVEHIVSKDVLVQGDKVRWDVQLDGKYNGQRRRVRVDIISRKINGRWILEEIRIK` : 0.748

protease stability score reported for this sequence `DEEHELLEHWLRLFEEAFSTGDWRIMARLIDPNARLEIGEKDHHGREELIKFMLRVDHIDDFRLHEKDRTEIDGRLRMNGNNEVQGTVNGQKRNITIDIHIVVVKVDGRWFVERIRIR` : 1.3

protease stability score reported for this sequence `SELEEITEKAIRMDLQHEETGDWKKYSDMIDPHARFIVNGVEFVGRHFLLKWFLDVAKRVDHSRMHVDHEEHVDGRIHVDFRFELIFDGREYRIRSHIVADKIDGQWYFRQIRFQ` : 1.29

protease stability score reported for this sequence `SETEENAEHVVREWFEMITTGDEDEVLRLMDPHVRVRIGDKIIHGREIFLAHMRHWRIKNKHFEIEHMHFYGDKAVLDGRLVGEETVDGKHRTYDRRVDFNLVKIDGKWHIREFHVD` : 1.52

protease stability score reported for this sequence `SEEDELAKYVIRLWVEEFRTGDEESMFRLLDPHVLVQQGDKEYHGRERWEDFIRKLGLQNVRVEVHRVTIQGEFIHVDGIIEIGDKRTRYILYFEKFNGRWINKELRIK` : 1.48

protease stability score reported for this sequence `DDQEKLVRKAWELLVRHLHTGDEEHLDKLIDPNTRMTYNGRETHGMELFSHLMTHLRVKDMDLKEVRIVDGRAILDGHLHGEIDGRETTTRTTYIILKIDGRWFVKSVRFE` : 1.15

protease stability score reported for this sequence `SEEEKSSHLSIRLWLEMLITGDEDHLEHLADPNVRIEFEGREFHGRERAMHWMRHVSRHMRIEHIQIRRIHYFDGRLQLEGRIDGNINGRNHRFDSELEVTKIDGRWLLTSERIE` : 1.24

protease stability score reported for this sequence `TEEDRETEKFLRILQEVHRTGDWRRFDEFLDPNVRIHIGDKEYHGREEFTRFFKEMGIDHHEVKHYRLVDGQLDLDVTERFNGVTVKTKLITHKFDGRWLITEIRVK` : 1.19

protease stability score reported for this sequence `HEREHLLERMLKLLLELLLTGDEDTWKHYLDPHTRVIFNGREEHGRTAFERFVKELGVDHIEFKHVEIRHIGDKVHLHVDARVEINGRKHNMHLHIHLRKIDGQWEVKEFRIEIE` : 1.27

protease stability score reported for this sequence `SEEKEDAKIALTLLHEVIETGDERLFREMADPRVQIIVNGKELHGWKHFKEMLRILSERYDHMEIKFRDVRVVDGQVDSDVTINLHYDGREDQMEMDIIISKFDGRWFNHQVIFR` : 1.34

protease stability score reported for this sequence `DEREKEHETQIRLLIHAIQTGDESMFHKMMDPNVRIQVGDKHIHGREFFVEIFKKLIDRYPGIQLHIRIHSIRFQGEKVTIDERLEIIVGDKEMRFETEIFSQKVNGRWLIEFERIQ` : 0.579

protease stability score reported for this sequence `DKEEVEKIAREALEAAVKGDEDKLKTYLGPDVKYVLGDQEYQGQQVAELVMKLIKKDGARLQLETLKVEGNTVQAQYQFHVDGVTRKAHITMKVKGGRVDEWQVHIDDHAKEALKKG` : 1.89

protease stability score reported for this sequence `SEIEELVERAEKEHLRTLMTGDWRLFEHNLDPNTKLELDYDGRKIERHGRRHMSHYLKELFKSLGIKHMHLEDSHIQGDKLELHLHFHIGDKTRNVIIIVRKVNGQWIVETLIVHEH` : 0.829

protease stability score reported for this sequence `TEEHRATHDYVELLIRAARTGDEDIWKTMFDPDDKLVINGRTHHGREEAVRLLREIRIQIDHVDLREVRVYDGVVEIHTHTELRIIQGDKHLEIRTDQEVHILKIDGRWSNSIVIIH` : 1.06

protease stability score reported for this sequence `SEEENEAKSWLEYVIRLLETGDEDSLRKLMDPHVRLIQGDKEFHGRELVTDIISEHIRKVKNVRIRIDDIKFIGEKVYLHGTLEYGDKKHELHLITDKVNGRWLLRSIELR` : 2.56

protease stability score reported for this sequence `SEDEEYIRELMKLIAQITQTGDEELFRRLVDPHTRLVQGDKQYHGWHAFRVFLEEMRIKSVRVEVRRIEIQGEYVHVDTHWQLHVHYNGRDIDLHIDVRNIVHKVNGRWIIRHIHVE` : 0.986
